Origin of the recorded values: the supplement of paper PMC4380931

System: MZ7MEL
experiment_summary: apoptotic fraction of cells (caspase-3 NucView488 positive); higher = more apoptosis
settings: 48 h; 0.1 µM
I'd be grateful if you could share measured apoptotic fraction of cells for these entries.
One number for each entry.

// for each molecule below, give its apoptotic fraction of cells
1. Cc1ccc(NC(=O)c2cccc(C(C)(C)C#N)c2)cc1Nc1ccc2ncn(C)c(=O)c2c1 [AZ628]
2. CCCS(=O)(=O)Nc1ccc(F)c(C(=O)c2c[nH]c3ncc(Cl)cc23)c1F [PLX4720]
3. CCCS(=O)(=O)Nc1ccc(F)c(C(=O)c2c[nH]c3ncc(-c4ccc(Cl)cc4)cc23)c1F [Vemurafenib]
4. Cn1cnc2c(F)c(Nc3ccc(Br)cc3Cl)c(C(=O)NOCCO)cc21 [Selumetinib]
5. CN(C)CCOc1ccc(-c2nc(-c3ccncc3)c(-c3ccc4c(c3)CC/C4=N\O)[nH]2)cc1

Output line:
0.0263
0.0113
0.0148
0.0195
0.0141

---

Tested on: C32
experiment_summary: relative viability (cell count relative to DMSO-treated control) (fraction of DMSO control); higher = more viable cells / less drug effect
settings: 72 h; 0.00316 µM
readout_name: relative viability

Answered examples (3):
> print(dat)
                                   molecule  system.name  value.observed
1  CCCS(=O)(=O)Nc1ccc(F)c(C(=O)c2c[nH]c3ncc(Cl)cc23)c1F [PLX4720]          C32           0.957
2  Cn1cnc2c(F)c(Nc3ccc(Br)cc3Cl)c(C(=O)NOCCO)cc21 [Selumetinib]          C32           0.891
3  CCCS(=O)(=O)Nc1ccc(F)c(C(=O)c2c[nH]c3ncc(-c4ccc(Cl)cc4)cc23)c1F [Vemurafenib]          C32            1.04

// for each molecule below, give its relative viability
1. Cc1ccc(NC(=O)c2cccc(C(C)(C)C#N)c2)cc1Nc1ccc2ncn(C)c(=O)c2c1 [AZ628]
2. CN(C)CCOc1ccc(-c2nc(-c3ccncc3)c(-c3ccc4c(c3)CC/C4=N\O)[nH]2)cc1

Output line:
[0.992, 1.1]

---

I'd be grateful if you could share measured relative viability for these entries.
System: MMACSF
experiment_summary: relative viability (cell count relative to DMSO-treated control) (fraction of DMSO control); higher = more viable cells / less drug effect
settings: 24 h; 3.16 µM
Numbers only.

Answered examples (4):
> print(dat)
                                   molecule  system.name        readout.name  value.observed
1  CCCS(=O)(=O)Nc1ccc(F)c(C(=O)c2c[nH]c3ncc(Cl)cc23)c1F [PLX4720]       MMACSF  relative viability            1.06
2  Cn1cnc2c(F)c(Nc3ccc(Br)cc3Cl)c(C(=O)NOCCO)cc21 [Selumetinib]       MMACSF  relative viability            1.06
3  CCCS(=O)(=O)Nc1ccc(F)c(C(=O)c2c[nH]c3ncc(-c4ccc(Cl)cc4)cc23)c1F [Vemurafenib]       MMACSF  relative viability           0.905
4  CN(C)CCOc1ccc(-c2nc(-c3ccncc3)c(-c3ccc4c(c3)CC/C4=N\O)[nH]2)cc1       MMACSF  relative viability            1.02

Consider the record given below.
Input line: Look up relative viability with MMACSF for this molecule: Cc1ccc(NC(=O)c2cccc(C(C)(C)C#N)c2)cc1Nc1ccc2ncn(C)c(=O)c2c1 [AZ628]
Output line: 1.03
